test system: SNB-75 CNS; test: NCI-60 one-dose screen, 48 h; details: 10 µM unless noted
This is part of a sample that, as a whole, favours compounds with a hit. Of some 83,000 tested, about 20% had one in any assay. Activity calls are given as the source filed them. Rule for the calls: active = growth percent below 10; inactive = the rest.
Just give me one of these, please: active, inactive

# example entries with known answers
| compound | experimental system | answer label |
| --- | --- | --- |
| COc1ccc(-c2n[nH]nc2-c2cc(OC)c3c(c2)OCO3)cc1 | SNB-75 CNS | inactive |
| CC(C)=CCC[C@H](C)c1ccc(C)c2c1OCN(CCO)C2 | SNB-75 CNS | inactive |

Inquiry: I'd appreciate the recorded outcome for CC(=O)c1c(C)nc(-c2cc(C)cc(Cl)c2)nc1-c1cccc(Oc2ccccc2)c1 from this test.
Reply text: inactive

Inquiry: Recorded test call requested for COc1cc2cc(C(=O)Nc3ccccc3)c(N)nc2cc1OC
Reply text: inactive

Inquiry: For CO[C@@]12[C@@H]3NC3CN1C1=C(C(=O)C(N)=C(C)C1=O)[C@@H]2COC(N)=O (stereo partly specified) , which call appears in the assay record?
Reply text: active

Inquiry: Could you kindly confirm the outcome this assay logged for Clc1cc(Br)ccc1-c1ccc(CNCC2CCNCC2)o1 ?
Reply text: active

Inquiry: Assay outcome for O=c1[nH]cnc2nc[nH]c12 : what was it?
Reply text: inactive

Inquiry: Fill in: this test's call for COC(=O)c1ccc(NC(N)=NCCC(C)(C)c2ccc(C(F)(F)F)cc2)nc1 is ___
Reply text: inactive

Inquiry: What is the recorded call for this compound in the test? C=CC[C@]1(O)CC[C@H]2[C@@H]3CCc4cc(O)ccc4[C@H]3CC[C@@]21C
Reply text: inactive

Inquiry: Just curious, what result did O=C(NCCNC(=O)c1cc(S(=O)(=O)NCCc2ccccc2)c(O)c(O)c1O)c1cc(S(=O)(=O)NCCc2ccccc2)c(O)c(O)c1O get here?
Reply text: inactive

* * *

system: SK-MEL-5 melanoma; assay: NCI-60 one-dose screen, 48 h (100 = growth as untreated, 0 = no growth, -100 = all killed); conditions: 10 µM unless noted
The panel holds about 83,000 compounds, 20% with a hit somewhere; the sample as a whole holds those more often. The source made the active and inactive calls. How the source made its calls: active means growth percent below 10; inactive means the rest.
Reported growth values are given for each entry in this list.

| molecule | growth |
| --- | --- |
| O=C(/C=C/c1ccccc1)C(Br)C(Br)c1ccccc1 (stereo unspecified) | 38.9% (inactive) |
| CCOC(=O)C1=C(C)NC(SCc2nnc(-c3ccc(Cl)cc3)o2)=NC1c1ccc(Br)cc1 (stereo unspecified) | 51.4% (inactive) |
| Cc1cc(C)cc(Nc2cc(C)nc3nc(C(F)(F)F)nn23)c1 | 32.1% (inactive) |
| COc1c(C(=O)/C=C/c2ccc(C)o2)c(O)cc2occc12 | 86.6% (inactive) |
| O=c1[nH]c2cc(Cl)c(Cl)cc2o1 | 115% (inactive) |
| CC[C@H](Nc1nc(N)nc(C2CC2)c1C#N)c1nc2cccc(NCc3ccc(C(=O)NO)cc3)c2c(=O)n1-c1ccccc1 | -29.5% (active) |
| O=c1c2sc3ncc(Cl)cc3c2nnn1-c1cccc(Cl)c1 | 96.3% (inactive) |
| C/C(=N\OC(=O)Nc1cccc(Cl)c1)c1ccccc1 | 94.8% (inactive) |

Inquiry: Field request: growth | item: O=C(/C=C/c1ccccc1)n1c(-c2ccccc2)nc2ccccc21
Reply text: 97.4% (inactive)

Inquiry: What does the record list as growth for Cc1cc2nc3c(=O)[nH]c(=O)nc-3n(CC=O)c2cc1C ?
Reply text: 98.6% (inactive)

Inquiry: # input molecule: O=C1OC(c2ccc(-c3ccccc3)cc2)=C/C1=C/c1c(Cl)cccc1Cl ; wanted: its growth
Reply text: 101% (inactive)
